Test: aqueous solubility
Assay type: physicochemical
Conditions: aqueous, pH 7, aqueous buffer; read-out: aqueous solubility

[
  {
    "Molecule": "O=C1CN2Cc3c(ccc(Cl)c3Cl)N=C2N1 [Anagrelide]",
    "solubility": "< 10 µg/mL"
  }
]

---

Test system: megakaryocytopoiesis
Assay: inhibition of TPO-induced megakaryocytopoiesis (differentiation of human CD34+ stem cells into megakaryocytes)
Type: cell-based
Details: read-out: anti-megakaryocytic IC50

[
  {
    "Compound": "CC1(C)C(=O)NC2=Nc3ccc(Cl)c(Cl)c3CN21 [3,3-dimethyl anagrelide]",
    "IC50": "~160 nM"
  }
]
